Reference source: ChEMBL document CHEMBL5365432

Test system: DNA
method description: Binding affinity to DNA (unknown origin) assessed as DNA alkylation at RUNX-binding site at 150 uM incubated for 18 hrs by HPLC analysis
Type: nucleic-acid assay
Calls of active or inactive are those of the source. The rule behind the calls is not given here.
reported property: Activity

smiles representation	reported property	test value
CN(C)CCCNC(=O)c1cc(NC(=O)c2cc(NC(=O)c3cc(NC(=O)c4cc(NC(=O)CCCNC(=O)c5nc(NC(=O)c6cc(NC(=O)c7nc(NC(=O)c8nc(NC(=O)CCNC(=O)CCCc9ccc(N(CCCl)CCCl)cc9)cn8C)cn7C)cn6C)cn5C)cn4C)cn3C)cn2C)cn1C	Activity	Active
CN(C)CCCNC(=O)c1nc(NC(=O)c2nc(NC(=O)c3cc(NC(=O)c4nc(NC(=O)CCCNC(=O)c5cc(NC(=O)c6cc(NC(=O)c7cc(NC(=O)c8cc(NC(=O)CCNC(=O)CCCc9ccc(N(CCCl)CCCl)cc9)cn8C)cn7C)cn6C)cn5C)cn4C)cn3C)cn2C)cn1C	Activity	Active
CN(C)CCCNC(=O)c1nc(NC(=O)c2cc(NC(=O)c3nc(NC(=O)c4nc(NC(=O)CCCNC(=O)c5cc(NC(=O)c6cc(NC(=O)c7cc(NC(=O)c8cc(NC(=O)CCNC(=O)CCCc9ccc(N(CCCl)CCCl)cc9)cn8C)cn7C)cn6C)cn5C)cn4C)cn3C)cn2C)cn1C	Activity	inactive
CN(C)CCCNC(=O)c1cc(NC(=O)c2cc(NC(=O)c3cc(NC(=O)c4cc(NC(=O)CCCNC(=O)c5nc(NC(=O)c6nc(NC(=O)c7cc(NC(=O)c8nc(NC(=O)CCNC(=O)CCCc9ccc(N(CCCl)CCCl)cc9)cn8C)cn7C)cn6C)cn5C)cn4C)cn3C)cn2C)cn1C	Activity	inactive

* * *

method description: Cytotoxicity against human hTERT-HPNE cells assessed as cell viability at 3 uM incubated for 3 days by colorimetric assay relative to control
Type: toxicity, cell-based
protocol conditions: time 3 day, read-out: Activity
Measured viability at 72 h, 3 µM, listed per entry.

smiles representation	viability at 72 h, 3 µM
CN(C)CCCNC(=O)c1nc(NC(=O)c2nc(NC(=O)c3cc(NC(=O)c4nc(NC(=O)CCCNC(=O)c5cc(NC(=O)c6cc(NC(=O)c7cc(NC(=O)c8cc(NC(=O)CCNC(=O)CCCc9ccc(N(CCCl)CCCl)cc9)cn8C)cn7C)cn6C)cn5C)cn4C)cn3C)cn2C)cn1C	82%
CN(C)CCCNC(=O)c1cc(NC(=O)c2cc(NC(=O)c3cc(NC(=O)c4cc(NC(=O)CCCNC(=O)c5nc(NC(=O)c6cc(NC(=O)c7nc(NC(=O)c8nc(NC(=O)CCNC(=O)CCCc9ccc(N(CCCl)CCCl)cc9)cn8C)cn7C)cn6C)cn5C)cn4C)cn3C)cn2C)cn1C	73.8%

**Q:** Entry CN(C)CCCNC(=O)c1cc(NC(=O)c2cc(NC(=O)c3cc(NC(=O)c4cc(NC(=O)CCCNC(=O)c5nc(NC(=O)c6nc(NC(=O)c7cc(NC(=O)c8nc(NC(=O)CCNC(=O)CCCc9ccc(N(CCCl)CCCl)cc9)cn8C)cn7C)cn6C)cn5C)cn4C)cn3C)cn2C)cn1C : reported viability at 72 h, 3 µM = ?
**A:** 79.5%
